meta.source: patent US20220289698A1

System: AML-12 cells
Assay: Toxicity screening (LDH) in AML-12 cells
Format: cell-based, mouse
Details: 24 h treatment, LDH release
recorded-metric: Tox AML-12 (LDH) seen from (µM)
Numeric answer only, unit µM assumed.

Need Tox AML-12 (LDH) seen from of `CCOc1ccc(-c2nc(C(=O)OCc3ccoc3)cs2)cc1` , thanks.
50

Need Tox AML-12 (LDH) seen from of `CCOc1ccc(-c2cccc(C(=O)OCc3ccco3)n2)cc1` , thanks.
200

Need Tox AML-12 (LDH) seen from of `C#C[C@@H](C)OC(=O)c1csc(-c2ccc(OCC)cc2)n1` , thanks.
100

Need Tox AML-12 (LDH) seen from of `CCOc1ccc(-c2cccc(C(=O)OCc3cccs3)n2)cc1` , thanks.
200

Need Tox AML-12 (LDH) seen from of `COc1cc(C(=O)OC(C)C)nc(-c2ccc(OC(C)C)cc2)c1` , thanks.
200

Need Tox AML-12 (LDH) seen from of `C#C[C@H](C)OC(=O)c1csc(-c2ccc(OCC)cc2)n1` , thanks.
200

Need Tox AML-12 (LDH) seen from of `CC#CCOC(=O)c1csc(-c2ccc(OCC)cc2)n1` , thanks.
100

Need Tox AML-12 (LDH) seen from of `CCCCOC(=O)c1csc(-c2ccc(OCC)cc2)n1` , thanks.
200

* * *

Give melting point for every item shown.

Need melting point of CC(C)OC(=O)c1cccc(-c2ccc(C(F)(F)F)cc2)n1 [Example 41] , thanks.
98 to 99 °C

Need melting point of CCCOc1ccc(-c2cccc(C(=O)OC(C)C)n2)cc1 [Example 27] , thanks.
90 to 93 °C

Need melting point of CCCCCOc1ccc(-c2cccc(C(=O)OC(C)C)n2)cc1 [Example 85] , thanks.
63 to 65 °C

Need melting point of CCOC(=O)c1cccc(-c2ccc(-c3ccncc3)cc2)n1 [Example 50] , thanks.
127 to 131 °C

Need melting point of CCOc1ccc(-c2cccc(C(=O)OC(C)(C)C)n2)cc1 [Example 28] , thanks.
69 to 73 °C

Need melting point of CSc1ccc(-c2cccc(C(=O)OC(C)C)n2)cc1 [Example 90] , thanks.
60 to 61 °C

Need melting point of CCOc1ccc(-c2cccc(C(=O)OCc3ccncc3)n2)cc1 [Example 194] , thanks.
101 to 106 °C

Need melting point of CCOc1ccc(-c2cc(OC)cc(C(=O)OC)n2)cc1 [Example 26] , thanks.
94 to 103 °C

Need melting point of CCOC(=O)c1csc(-c2ccc(O)cc2)n1 [Example 188] , thanks.
171 °C

Need melting point of CC(C)OC(=O)c1cccc(-c2ccc(C(F)(F)F)cc2F)n1 [NG-587] , thanks.
96 to 97 °C

* * *

Target: human ATGL (Homo sapiens, UniProt Q96AD5)
Construct: made in house; host or cells: Expi cells (lysate, not purified)
Sequence (Q96AD5 whole entry): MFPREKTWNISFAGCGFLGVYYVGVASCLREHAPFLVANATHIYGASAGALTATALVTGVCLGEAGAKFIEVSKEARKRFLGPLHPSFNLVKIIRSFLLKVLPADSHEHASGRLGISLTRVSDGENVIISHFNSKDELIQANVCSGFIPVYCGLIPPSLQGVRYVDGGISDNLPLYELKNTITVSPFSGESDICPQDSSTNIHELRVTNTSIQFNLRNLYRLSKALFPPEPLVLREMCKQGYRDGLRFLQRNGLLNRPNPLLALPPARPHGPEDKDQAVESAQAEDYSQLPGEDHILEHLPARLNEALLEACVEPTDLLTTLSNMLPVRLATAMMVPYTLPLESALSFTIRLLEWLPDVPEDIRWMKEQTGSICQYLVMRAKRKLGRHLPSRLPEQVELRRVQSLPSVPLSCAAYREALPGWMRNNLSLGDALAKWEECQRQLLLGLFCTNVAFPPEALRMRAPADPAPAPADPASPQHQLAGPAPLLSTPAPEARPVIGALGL
Assay: TG hydrolase activity, Expi cell lysates expressing human ATGL + CGI-58, radiolabelled triolein
Format: biochemical
Details: Example 238; read-out: Inhibition of human ATGL IC50
Give pIC50 for every item shown.
# log scale: pIC50 equals minus log10 of the concentration in mol/L

Request - read-out pIC50 | tested on human ATGL (Homo sapiens, UniProt Q96AD5) | molecule COc1ccc(-c2cc(OC)cc(C(=O)OC(C)C)n2)cc1 [Example 206]
5.30

Request - read-out pIC50 | tested on human ATGL (Homo sapiens, UniProt Q96AD5) | molecule COc1ccc(-c2nc(C(=O)OCc3ccsc3)cs2)cc1 [Example 231]
4.52

Request - read-out pIC50 | tested on human ATGL (Homo sapiens, UniProt Q96AD5) | molecule CCOc1ccc(-c2cccc(C(=O)OCc3ccoc3)n2)cc1 [Example 198]
4.70

Request - read-out pIC50 | tested on human ATGL (Homo sapiens, UniProt Q96AD5) | molecule CCOc1ccc(-c2cccc(C(=O)OCc3cccs3)n2)cc1 [Example 189]
4.60

Request - read-out pIC50 | tested on human ATGL (Homo sapiens, UniProt Q96AD5) | molecule CCOc1ccc(-c2nc(C(=O)OCc3ccc(Br)s3)cs2)cc1 [Example 224]
4.92

Request - read-out pIC50 | tested on human ATGL (Homo sapiens, UniProt Q96AD5) | molecule CCCCOC(=O)c1csc(-c2ccc(OCC)cc2)n1 [Example 212]
5.15

Request - read-out pIC50 | tested on human ATGL (Homo sapiens, UniProt Q96AD5) | molecule CC#CCOC(=O)c1csc(-c2ccc(OCC)cc2)n1 [Example 209]
5.00

Request - read-out pIC50 | tested on human ATGL (Homo sapiens, UniProt Q96AD5) | molecule CCOc1ccc(-c2nc(C(=O)OCc3ccc(Cl)s3)cs2)cc1 [Example 223]
4.92

Request - read-out pIC50 | tested on human ATGL (Homo sapiens, UniProt Q96AD5) | molecule CCCOc1ccc(-c2nc(C(=O)OCc3ccsc3)cs2)cc1 [Example 232]
4.92

Request - read-out pIC50 | tested on human ATGL (Homo sapiens, UniProt Q96AD5) | molecule CCOc1ccc(-c2cccc(C(=O)OCc3ccco3)n2)cc1 [Example 190]
4.82

Request - read-out pIC50 | tested on human ATGL (Homo sapiens, UniProt Q96AD5) | molecule CCOc1ccc(-c2nc(C(=O)OCc3cnco3)cs2)cc1 [Example 220]
4.52

Request - read-out pIC50 | tested on human ATGL (Homo sapiens, UniProt Q96AD5) | molecule CCOc1ccc(-c2cccc(C(=O)OCc3ccsc3)n2)cc1 [Example 197]
4.52

Request - read-out pIC50 | tested on human ATGL (Homo sapiens, UniProt Q96AD5) | molecule CCc1ccc(-c2cc(OC)cc(C(=O)OC(C)C)n2)cc1 [Example 205]
5.52

Request - read-out pIC50 | tested on human ATGL (Homo sapiens, UniProt Q96AD5) | molecule CCC(C)OC(=O)c1cc(OC)cc(-c2ccc(OC(C)C)cc2)n1 (stereo not shown) [Example 202]
5.52

Request - read-out pIC50 | tested on human ATGL (Homo sapiens, UniProt Q96AD5) | molecule [2H]C([2H])([2H])C([2H])(OC(=O)c1cc(OC)cc(-c2ccc(OC(C)C)cc2)n1)C([2H])([2H])[2H] [Example 204]
6.00

Request - read-out pIC50 | tested on human ATGL (Homo sapiens, UniProt Q96AD5) | molecule COc1cc(C(=O)OC2CCC2)nc(-c2ccc(OC(C)C)cc2)c1 [Example 203]
5.00

Request - read-out pIC50 | tested on human ATGL (Homo sapiens, UniProt Q96AD5) | molecule CCOc1ccc(-c2nc(C(=O)OCc3cocn3)cs2)cc1 [Example 218]
4.70

Request - read-out pIC50 | tested on human ATGL (Homo sapiens, UniProt Q96AD5) | molecule CCOc1ccc(-c2nc(C(=O)OCc3cncs3)cs2)cc1 [Example 217]
4.70

Request - read-out pIC50 | tested on human ATGL (Homo sapiens, UniProt Q96AD5) | molecule CC(C)Oc1ccc(-c2nc(C(=O)OCc3ccsc3)cs2)cc1 [Example 233]
5.00

Request - read-out pIC50 | tested on human ATGL (Homo sapiens, UniProt Q96AD5) | molecule C#CCC(C)OC(=O)c1csc(-c2ccc(OCC)cc2)n1 (stereo not shown) [Example 208]
5.00

* * *

Biological target: human ATGL (Homo sapiens, UniProt Q96AD5)
Construct: made in house; host or cells: Expi cells (lysate, not purified)
Assay: TG hydrolase activity, Expi cell lysates expressing human ATGL + CGI-58, radiolabelled triolein
Assay type: biochemical
Conditions: Example 237; read-out: Inhibition of human ATGL − IC50
Give IC50 for every item shown.
Numeric answer only, unit µM assumed.

Need IC50 of `COc1cc(C(=O)OC(C)C)nc(-c2ccc(C(F)(F)F)cc2)c1` , thanks.
7

Need IC50 of `CCOc1ccc(-c2nc(C(=O)OC3CCCC3)cs2)cc1` , thanks.
5

Need IC50 of `CC(C)OC(=O)c1cccc(-c2ccc(OCC(F)(F)F)cc2)n1` , thanks.
5

Need IC50 of `CC(C)OC(=O)c1cccc(-c2ccc(OC(C)C)cc2)n1` , thanks.
3

Need IC50 of `CCOc1ccc(-c2cccc(C(=O)OC(C)C)n2)cc1` , thanks.
3

Need IC50 of `CCOC(=O)c1nc(-c2ccc(OCC)cc2)sc1Br` , thanks.
25

Need IC50 of `CCOC(=O)c1cc(C)cc(-c2ccc(OCC)cc2)n1` , thanks.
10

Need IC50 of `CCCCCCOc1ccc(-c2cccc(C(=O)OC)n2)cc1` , thanks.
25

Need IC50 of `CCCOc1ccc(-c2nc(C(=O)OCC)cs2)cc1` , thanks.
3

Need IC50 of `CCOc1ccc(-c2cccc(C(=O)OC/C=C/c3ccccc3)n2)cc1` , thanks.
3

Need IC50 of `CCOc1ccc(-c2nc(C(=O)OC(C)C)cs2)cc1` , thanks.
3

Need IC50 of `COCc1ccc(-c2cccc(C(=O)OC(C)C)n2)cc1` , thanks.
3

Need IC50 of `CCOc1ccc(-c2cc(OC)cc(C(=O)OC(C)C)n2)cc1` , thanks.
1

Need IC50 of `C/C=C/COC(=O)c1csc(-c2ccc(OCC)cc2)n1` , thanks.
12

Need IC50 of `CON(C)C(=O)c1ccc(-c2cccc(C(=O)OC(C)C)n2)cc1` , thanks.
5

Need IC50 of `CCOC(=O)c1nc(-c2ccc(OCC)cc2)sc1I` , thanks.
5

Need IC50 of `C#CCOC(=O)c1cccc(-c2ccc(OCC)cc2)n1` , thanks.
15

Need IC50 of `CCSc1ccc(-c2cccc(C(=O)OC(C)C)n2)cc1` , thanks.
6

Need IC50 of `CCCCCOc1ccc(-c2nc(C(=O)OCC)cs2)cc1` , thanks.
25

Need IC50 of `CCOc1ccc(-c2nc(C(=O)OC3CCCCC3)cs2)cc1` , thanks.
25
